Numbers sourced from patent US20260224542A1.

test: Solubility of Compound 1 incubated for 24 h at 25° C. (Example 6); assay type: physicochemical; conditions: water; background statement, conditions not stated
experimental_endpoint: solubility (µg/mL)
Enter your answer as a number in µg/mL; do not include the unit.

Query: I am curious: what solubility value has been reported for N=C1NC[C@@H](c2nnc([C@@H]3CC4(CC4)[C@@H]4CN3C(=O)N4OS(=O)(=O)O)o2)N1 ?
Reply: 600
